Target: Voltage-dependent T-type calcium channel subunit alpha-1G (Homo sapiens, UniProt O43497)
Sequence (O43497 whole entry): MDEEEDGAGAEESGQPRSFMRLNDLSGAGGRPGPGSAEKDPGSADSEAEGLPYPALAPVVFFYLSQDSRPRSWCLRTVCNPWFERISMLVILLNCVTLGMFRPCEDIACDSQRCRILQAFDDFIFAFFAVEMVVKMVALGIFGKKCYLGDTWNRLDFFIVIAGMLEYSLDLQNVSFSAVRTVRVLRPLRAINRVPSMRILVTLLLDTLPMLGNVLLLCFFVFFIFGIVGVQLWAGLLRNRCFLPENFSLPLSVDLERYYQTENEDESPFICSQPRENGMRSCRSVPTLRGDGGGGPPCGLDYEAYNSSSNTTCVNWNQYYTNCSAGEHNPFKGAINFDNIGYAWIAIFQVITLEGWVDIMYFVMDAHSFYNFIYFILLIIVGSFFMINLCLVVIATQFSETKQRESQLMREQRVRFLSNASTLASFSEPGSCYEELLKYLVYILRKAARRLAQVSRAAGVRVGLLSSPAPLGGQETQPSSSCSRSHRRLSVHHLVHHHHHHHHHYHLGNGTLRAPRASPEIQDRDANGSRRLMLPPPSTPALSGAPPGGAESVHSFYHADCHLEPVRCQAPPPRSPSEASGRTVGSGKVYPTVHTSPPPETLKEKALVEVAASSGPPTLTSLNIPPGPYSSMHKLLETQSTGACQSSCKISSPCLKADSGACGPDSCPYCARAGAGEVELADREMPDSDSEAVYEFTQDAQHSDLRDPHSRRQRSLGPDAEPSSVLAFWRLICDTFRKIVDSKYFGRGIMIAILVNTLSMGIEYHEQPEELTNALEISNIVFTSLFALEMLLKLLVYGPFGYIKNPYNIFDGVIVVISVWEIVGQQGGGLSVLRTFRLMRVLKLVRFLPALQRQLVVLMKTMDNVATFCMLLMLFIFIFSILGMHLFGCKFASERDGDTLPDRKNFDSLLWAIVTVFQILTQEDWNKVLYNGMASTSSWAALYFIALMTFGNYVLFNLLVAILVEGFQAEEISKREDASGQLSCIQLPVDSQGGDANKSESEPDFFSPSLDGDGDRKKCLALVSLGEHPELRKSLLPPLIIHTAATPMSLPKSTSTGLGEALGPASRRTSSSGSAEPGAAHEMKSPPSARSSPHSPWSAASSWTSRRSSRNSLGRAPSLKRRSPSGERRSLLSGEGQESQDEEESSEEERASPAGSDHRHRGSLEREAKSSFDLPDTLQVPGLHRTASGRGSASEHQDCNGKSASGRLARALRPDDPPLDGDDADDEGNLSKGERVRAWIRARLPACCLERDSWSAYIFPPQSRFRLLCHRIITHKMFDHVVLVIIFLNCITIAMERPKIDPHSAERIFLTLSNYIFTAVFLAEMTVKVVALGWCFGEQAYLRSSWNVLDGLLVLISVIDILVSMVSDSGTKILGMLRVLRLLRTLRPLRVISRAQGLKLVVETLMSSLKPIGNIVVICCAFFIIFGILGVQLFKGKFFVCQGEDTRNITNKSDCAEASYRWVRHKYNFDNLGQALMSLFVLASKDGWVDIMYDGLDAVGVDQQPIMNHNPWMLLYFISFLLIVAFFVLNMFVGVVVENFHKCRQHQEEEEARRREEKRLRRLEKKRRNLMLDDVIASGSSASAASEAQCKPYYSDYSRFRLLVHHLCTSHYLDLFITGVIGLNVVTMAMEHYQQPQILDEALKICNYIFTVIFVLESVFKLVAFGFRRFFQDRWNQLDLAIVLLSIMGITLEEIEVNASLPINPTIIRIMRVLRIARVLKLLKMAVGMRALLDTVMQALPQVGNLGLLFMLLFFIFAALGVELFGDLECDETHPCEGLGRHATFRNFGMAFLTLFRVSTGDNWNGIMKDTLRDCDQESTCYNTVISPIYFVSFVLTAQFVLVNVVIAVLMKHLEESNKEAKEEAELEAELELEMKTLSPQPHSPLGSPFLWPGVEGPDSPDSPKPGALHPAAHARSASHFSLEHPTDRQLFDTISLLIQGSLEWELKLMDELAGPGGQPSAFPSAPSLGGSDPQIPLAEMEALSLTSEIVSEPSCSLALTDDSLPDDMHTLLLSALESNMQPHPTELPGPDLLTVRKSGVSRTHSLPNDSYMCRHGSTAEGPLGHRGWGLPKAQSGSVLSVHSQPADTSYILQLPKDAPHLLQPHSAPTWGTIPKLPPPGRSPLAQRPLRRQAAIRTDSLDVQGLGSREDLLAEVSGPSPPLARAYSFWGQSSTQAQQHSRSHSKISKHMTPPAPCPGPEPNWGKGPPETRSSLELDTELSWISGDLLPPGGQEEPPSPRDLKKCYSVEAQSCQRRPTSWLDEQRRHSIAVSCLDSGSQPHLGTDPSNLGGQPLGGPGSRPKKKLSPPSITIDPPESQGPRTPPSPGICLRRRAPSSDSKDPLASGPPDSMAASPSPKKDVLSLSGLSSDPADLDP
Procedure text: Inhibition of T type calcium channel subunit alpha1G expressed in HEK293 cells assessed as effect on KCl-induced increase in intracellular calcium level at 10 uM by FDSS assay
Type: cell-based
Reported property: inhibition (%)

INSERT INTO results (compound_structure_string, reported_value) VALUES
  ('O=C(CN1CCN(C(=O)CCCCN2CCN(Cc3ccccc3)CC2)CC1)Nc1ccccc1Cl', 15.9),
  ('O=C(CCCN1CCN(Cc2ccc(Cl)c(Cl)c2)CC1)Nc1ccc(F)cc1F', 59.9),
  ('CCN1CCN(CCCCC(=O)N2CCN(CC(=O)Nc3cccc(C)c3)CC2)CC1', -1.36),
  ('O=C(CCCN1CCN(Cc2ccc(Cl)cc2)CC1)Nc1cc(Cl)c(Cl)c(Cl)c1', 27.5),
  ('COc1ccccc1N1CCN(CCCC(=O)Nc2ccc(F)cc2F)CC1', 33),
  ('O=C(CCCN1CCN(c2ccc(F)cc2)CC1)Nc1ccc(Cl)cc1', 32.5);
